These entries and their values trace back to the supplement of paper PMC9732359.

protocol.summary: protein stability index of a GFP-peptide fusion (yeast GPS) (PSI 1-4); higher = more stable; sorted into four equal gates, so the index is relative within each strain
recorded.conditions: san1∆

primary.sequence	protein stability index
LFPIVKKHGKTDYFLPK [YJL039C/NUP192]	2.58
SSLFNNSTNSNTTKPAF [YJL041W/NSP1]	2.61
RAQRVAEKRDALLKEDA [RPL19A]	2.89
VDSRNETDHKTNENGET [SRB4]	2.77
QVDKVTKEKVNGASVPI [RPL26A]	2.86
EFNGFSLYQVDPSGSYF [PRE8]	2.1
DESDTISFRSNLLKNFI [SNF6]	2.58
LWINYIKELLNITKNLK [POP4]	1.62
DMSKILVDQGFNYSGKD [RET1]	3.31
KSLGVKSLGGGAALKDI [FAS2]	2.41
VNSYRLNPNEYFSVTTA [SWI3]	2.3
SHLYKARLDGHDFLFNT [RPN14]	3.13
SNISDEKSRISERDSKD [YMR129W/POM152]	2.87
QAMGVFLTNYNVRMDTM [RPB2]	3.63
LDSNFNLQREIDQAHVS [RPN14]	2.56
EYSYVDSNMDSISSVVS [RPN4]	2.68
KDLKEILSGFHNAGPVA [RPP1B]	2.62

----------
protocol.summary: protein stability index of a GFP-peptide fusion (yeast GPS) (PSI 1-4); higher = more stable; sorted into four equal gates, so the index is relative within each strain
recorded.conditions: san1∆

primary.sequence	protein stability index
MVKNVKPSSPPDVKSLV [SIR4]	2.97
SIRAEAVAASSTKTGTP [POP1]	3.08
LASPEVKVHMDSETSDP [DIS3]	3.03
PKDTSAATMTSAPPPAL [RGR1]	2.51
VRTRGGNKKYRALRIET [RPS8A]	2.71
GGESMEGPKKCIQVNCL [SNM1]	2.23
GKILTIKQQQQQQQQQN [YML103C/NUP188]	3.12
PVLFNRQPSLHKMSMMA [RPO21]	3.05
SQSKGTVWSANFEYDLS [YOR098C/NUP1]	2.69
DDVISNAGTNDNSFNEL [MCD1]	3.31
DVLKVNTLVRPNGTKKA [RPL25]	2.89
VKVHMDSETSDPNEVEI [DIS3]	3.5
ANQSATSTPPPPPAPHN [SNF5]	2.82
ITSFGFGQKGGQAIVVH [FAS2]	1.52
THLEIEPFTILGAVAGL [RET1]	2.08
PSTRSNFILEVFGTIIP [YJL039C/NUP192]	1.28
GKLFSDIKVLKRQLIKE [YIL149C/MLP2]	2.59
GQCRPISKTVRFNVVKV [RPS11A]	2.76
PFTASQSNINTNAPLRT [YIL149C/MLP2]	2.11
VEKTEKPKKPKGRAYKR [RPS30A]	3.07
ITYGIIKVPTYIRKLIS [SRB8]	1.42
INSTKNGKDNNNESNKN [MED2]	3.22
IIANINSFTKGNVFSPI [SNU114]	2.43
FVIGVIIGTFSDSYKVS [RRP40]	2.04

----------
protocol.summary: protein stability index of a GFP-peptide fusion (yeast GPS) (PSI 1-4); higher = more stable; sorted into four equal gates, so the index is relative within each strain
recorded.conditions: doa10∆
// values below are reported protein stability index

primary.sequence	protein stability index
GYLFKVSALDKCIKYSE [ECM29]	3.08
VKSKIQDKEGIPPDQQR [RPS31]	3.08
EFDRRILKKSLMTSHTK [RTT102]	2.94
SLCTVWKPNPSYDVENV [SRB5]	2.47
MPQSGTGVSVEAVDDVF [RPN11]	3.35
NIFSEAVKNKYNVGKQL [PRP28]	1.55
NGAVGKREGKTRLLNIV [ISW2]	3.27
ETALEFLEKEKQLTLLR [SMC4]	3.46
DASTPLRSTENGIVDQV [RPB2]	2.94
RRLDALVEKVYARFKND [ITC1]	3.29
MVTSNVVLVSGEGERFT [SKP1]	2.11
DVEDDDKETQLKKRAVS [POP7]	2.85
GYLITPPKHTELLLTTL [SSN2]	1.85
QFGNACISLSGVPNYLV [SSN2]	1.59
VEEKPGDRGALARASGN [RPL2A]	2.95
LTCLPVPPPPVRPSISF [RPO21]	2.28
IMNELYRMKGGRVTFIP [SMC3]	2.12
LESLKPIDDTMTLLTDS [MTW1]	3
VSSKCNDIHLRFMRFLA [ECM29]	2.23
KFKDMGIRAPKGALMYG [RPT5]	3.01
GGSGAATFSVSQASSDL [CSL4]	3.4
LTKTTVNISAVDNTTEQ [YCG1]	3.25
NSMDISMFSGLDSTGFD [MED2]	2.83
PALLRPGRLDRKIEFPS [RPT3]	3.2
